- measured_on: Human immunodeficiency virus type 1 reverse transcriptase (Human immunodeficiency virus 1) (UniProt Q72547)
- procedure_details: In vitro inhibitory activity against HIV-1 reverse transcriptase at 100 uM
# inhibition >= 30% gives T, anything below gives F

Take a look at these entries with their results.
compound_structure_string | assigned_class
CC(C)C(=O)c1cccnc1N1CCN(C(=O)c2cc3ccccc3[nH]2)CC1 | F
CCNc1cccnc1N1CCN(C(=O)c2cnc3ccccc3c2)CC1 | F
CCCNc1cccnc1N1CCN(C(=O)c2cc3ccccc3[nH]2)CC1 | T
COc1ccc2[nH]c(C(=O)N3CCN(c4ncccc4NC(C)(C)C)CC3)cc2c1 | T

## Task Check the entry CCNc1cccnc1N1CCN(C(=O)c2cccc3[nH]ccc23)CC1 : does inhibition equal or exceed 30%?
## Result F

## Task Check the entry COc1c(C)cc(C(=O)N2CCN(c3ccccn3)CC2)cc1C : does inhibition equal or exceed 30%?
## Result F

## Task Check the entry CCOc1ccccc1N1CCN(C(=O)c2cc(C)c(OC)c(C)c2)CC1 : does inhibition equal or exceed 30%?
## Result F
